Hey, just so you know, these numbers are from ChEMBL document CHEMBL1152150.

assay: Binding affinity to transmembrane alpha-helix of glycophorin A 2G/2I mutant by surface plasmon resonance method
Label true (1) when Kd is strictly below 200 µM; otherwise label false (0).

Criterion: Kd strictly below 200 µM. Is it met by `C[C@@]12CC[C@@H]3O[C@H](CO)[C@@H](O)C[C@H]3O[C@H]1C[C@H]1O[C@@H](COCc3ccccc3)[C@H](OCc3ccccc3)C[C@@H]1O2` ?
true (1)

State whether 200 µM exceeds Kd recorded for `C=CCC(=C)/C=C/[C@@](C)(O)[C@H]1O[C@@H]2C[C@@H]3O[C@@H]4C[C@@H]5O[C@@H]6C[C@@H]7O[C@@H]8C[C@@H]9O[C@@H]%10C[C@@H]%11O[C@](C)(CCO)[C@@H](O)C[C@H]%11O[C@H]%10C[C@H]9O[C@H]8CC[C@@]7(C)O[C@@]6(C)CC[C@H](C)[C@H]5O[C@H]4C[C@@]3(C)O[C@H]2CC1=C` .
true (1)

Given `C=CCC(=C)/C=C/[C@@](C)(O)[C@H]1O[C@@H]2C[C@@H]3O[C@@H]4C[C@@H]5O[C@@H]6C[C@@H]7O[C@@H]8C[C@@H]9O[C@@H]%10C[C@@H]%11O[C@](C)(CCOS(=O)(=O)O)[C@@H](OS(=O)(=O)O)C[C@H]%11O[C@H]%10C[C@H]9O[C@H]8CC[C@@]7(C)O[C@@]6(C)CC[C@H](C)[C@H]5O[C@H]4C[C@@]3(C)O[C@H]2CC1=C` , is recorded Kd strictly lower than 200 µM?
true (1)

Answer whether the compound `C[C@@]12CC[C@@H]3O[C@@H]4C[C@@H]5O[C@@H]6C[C@H](O)[C@@H](CO)O[C@H]6CC[C@@]5(C)O[C@H]4C[C@H]3O[C@H]1C[C@H]1O[C@@H](CCOCc3ccccc3)[C@H](OCc3ccccc3)C[C@@H]1O2` has Kd strictly less than 200 µM
true (1)

Consider the compound `OC[C@H]1O[C@@H](COCc2ccccc2)[C@H](OCc2ccccc2)C[C@@H]1O` . Is its Kd strictly less than 200 µM?
false (0)

---

target: Glycophorin-A (Homo sapiens)
Sequence (P02724 whole entry): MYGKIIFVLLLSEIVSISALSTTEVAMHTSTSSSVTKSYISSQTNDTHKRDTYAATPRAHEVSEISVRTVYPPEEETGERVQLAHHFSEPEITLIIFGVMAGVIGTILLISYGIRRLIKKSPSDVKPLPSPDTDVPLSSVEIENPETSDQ
experimental.endpoint: pKd
In plain terms, pKd is the concentration in mol/L turned into minus its base-10 logarithm.

Value lookup for pKd; key = `OC[C@H]1O[C@@H](COCc2ccccc2)[C@H](OCc2ccccc2)C[C@@H]1O`
2.62

Need pKd of `C[C@@]12CC[C@@H]3O[C@H](CO)[C@@H](O)C[C@H]3O[C@H]1C[C@H]1O[C@@H](COCc3ccccc3)[C@H](OCc3ccccc3)C[C@@H]1O2` , thanks.
3.62

Would you kindly share the measured pKd for C=CCC(=C)/C=C/[C@@](C)(O)[C@H]1O[C@@H]2C[C@@H]3O[C@@H]4C[C@@H]5O[C@@H]6C[C@@H]7O[C@@H]8C[C@@H]9O[C@@H]%10C[C@@H]%11O[C@](C)(CCOS(=O)(=O)O)[C@@H](OS(=O)(=O)O)C[C@H]%11O[C@H]%10C[C@H]9O[C@H]8CC[C@@]7(C)O[C@@]6(C)CC[C@H](C)[C@H]5O[C@H]4C[C@@]3(C)O[C@H]2CC1=C [YESSOTOXIN] ?
3.92

Item `C[C@@]12CC[C@@H]3O[C@@H]4C[C@@H]5O[C@@H]6C[C@H](O)[C@@H](CO)O[C@H]6CC[C@@]5(C)O[C@H]4C[C@H]3O[C@H]1C[C@H]1O[C@@H](CCOCc3ccccc3)[C@H](OCc3ccccc3)C[C@@H]1O2` has what recorded pKd?
4.32

Bench note: what pKd did C=CCC(=C)/C=C/[C@@](C)(O)[C@H]1O[C@@H]2C[C@@H]3O[C@@H]4C[C@@H]5O[C@@H]6C[C@@H]7O[C@@H]8C[C@@H]9O[C@@H]%10C[C@@H]%11O[C@](C)(CCO)[C@@H](O)C[C@H]%11O[C@H]%10C[C@H]9O[C@H]8CC[C@@]7(C)O[C@@]6(C)CC[C@H](C)[C@H]5O[C@H]4C[C@@]3(C)O[C@H]2CC1=C [DESULFATED YESSOTOXIN] show?
3.57
